Biological target: human orexin-2 receptor (Homo sapiens (Human))
Sequence (O43614 whole entry): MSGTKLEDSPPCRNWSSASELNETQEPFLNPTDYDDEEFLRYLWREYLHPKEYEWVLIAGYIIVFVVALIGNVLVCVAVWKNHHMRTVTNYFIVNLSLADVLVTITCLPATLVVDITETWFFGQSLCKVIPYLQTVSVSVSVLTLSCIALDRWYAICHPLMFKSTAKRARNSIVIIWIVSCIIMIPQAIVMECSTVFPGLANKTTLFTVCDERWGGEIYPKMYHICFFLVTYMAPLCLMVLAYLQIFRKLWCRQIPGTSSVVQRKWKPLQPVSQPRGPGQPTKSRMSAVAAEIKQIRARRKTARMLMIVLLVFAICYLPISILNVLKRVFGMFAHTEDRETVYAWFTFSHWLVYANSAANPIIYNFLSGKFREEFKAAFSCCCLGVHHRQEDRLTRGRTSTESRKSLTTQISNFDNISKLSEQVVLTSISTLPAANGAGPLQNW
Experiment: FLIPR Ca2+ Flux Assay, orexin-2 receptor
Settings: CHO cells expressing the human orexin-2 receptor; agonist 70 pM Ala-6,12 human orexin-A; read-out: hOX2 FLIPR IC50
Could you mark each record class 1 if its IC50 falls strictly under 90 nM, and class 0 if it equals or exceeds it?

q: I wonder whether C[C@@H]1CC[C@@H](c2cc(C3(O)CCC3)on2)CN1C(=O)c1ccccc1-n1nccn1 [Example 13] has IC50 below 90 nM. Can you tell?
a: class 0

q: I wonder whether COCc1ccccc1C(=O)N1C[C@H](c2cc(C(C)(C)O)no2)CC[C@H]1C [Example 21] has IC50 below 90 nM. Can you tell?
a: class 0

q: I wonder whether COCCc1ccccc1C(=O)N1C[C@H](c2cc(C(C)(C)O)sn2)CC[C@H]1C [Example 70] has IC50 below 90 nM. Can you tell?
a: class 0

q: I wonder whether C[C@@H]1CC[C@@H](c2cc(C(C)(C)O)on2)CN1C(=O)c1cc(Cl)ccc1-n1nccn1 [Example 3] has IC50 below 90 nM. Can you tell?
a: class 0

q: I wonder whether C[C@@H]1CC[C@@H](c2cc(C(C)(C)O)sn2)CN1C(=O)c1ccccc1C1(C#N)CC1 [Example 62] has IC50 below 90 nM. Can you tell?
a: class 1

q: I wonder whether C[C@@H]1CC[C@@H](c2cc(C3CCCO3)no2)CN1C(=O)c1ccccc1-n1nccn1 (some centres unmarked) [Example 56] has IC50 below 90 nM. Can you tell?
a: class 0

q: I wonder whether C[C@@H]1CC[C@@H](c2cc(C(C)(C)O)sn2)CN1C(=O)c1ccccc1OC(F)(F)F [Example 68] has IC50 below 90 nM. Can you tell?
a: class 1

* * *

Assign log10 IC50 to each entry below.
Biological target: human orexin-2 receptor (Homo sapiens (Human))
Assay: FLIPR Ca2+ Flux Assay, orexin-2 receptor
Conditions: CHO cells expressing the human orexin-2 receptor; agonist 70 pM Ala-6,12 human orexin-A; read-out: hOX2 FLIPR IC50
Scale: decimal log of IC50, IC50 in nM.

// known answers, use as guide
C[C@@H]1CC[C@@H](c2cc([C@](C)(O)C(F)F)on2)CN1C(=O)c1ccccc1-n1nccn1 [Example 18] : 1.96
C[C@@H]1CC[C@@H](c2cc([C@H](O)C(F)(F)F)no2)CN1C(=O)c1ccccc1-n1nccn1 [Example 41] : 1.24
C[C@@H]1CC[C@@H](c2cc(C(C)(C)O)no2)CN1C(=O)c1nccnc1-n1cccn1 [Example 25] : 2.90

Report log10 IC50 for each item below.
1. CC[C@@H]1CC[C@@H](c2cc(C(C)(C)O)no2)CN1C(=O)c1ccccc1-n1nccn1 [Example 39]
2. COC(C)(C)c1cc([C@@H]2CC[C@@H](C)N(C(=O)c3ccccc3-n3nccn3)C2)on1 [Example 57]
3. C[C@@H]1CC[C@@H](c2cc([C@@H](O)C(F)(F)F)no2)CN1C(=O)c1ccsc1-n1nccn1 [Example 42]

a:
[1.63, 1.16, 2.19]

q: Report log10 IC50 for COC(C)(C)c1cc([C@@H]2CC[C@@H](C)N(C(=O)c3ccccc3-n3nccn3)C2)no1 [Example 19]
a: 1.44
